test: Determination of hemolytic activity; type: cell-based; settings: rat red blood cells (5% suspension), 1 h at 37°C, physiological solution, read-out: hemolytic activity LC50
Peptide text beside a SMILES is read from it.
Listing: HC50 at 1 h of selected molecules
Use µM as the unit, but write only the number.

Molecule	HC50 at 1 h [µM]
CC[C@H](C)[C@H](NC(=O)[C@H](CCCCN)NC(=O)[C@H](CCCCN)NC(=O)[C@H](CC(C)C)NC(=O)[C@H](CC(C)C)NC(=O)[C@H](CO)NC(=O)[C@H](CCSC)NC(=O)[C@H](Cc1c[nH]c2ccccc12)NC(=O)[C@H](CCCCN)NC(=O)CN)C(=O)N[C@@H](CC(C)C)C(=O)N[C@@H](CCCCN)C(N)=O [(2-A/3)] (H-GKWMSLLKKILK-NH2)	126

Exam item: Fill in: HC50 at 1 h of CC[C@H](C)[C@H](NC(=O)[C@H](CC(C)C)NC(=O)[C@H](Cc1c[nH]cn1)NC(=O)CNC(=O)[C@H](CC(C)C)NC(=O)[C@@H](NC(=O)[C@H](CCCCN)NC(=O)[C@H](CO)NC(=O)[C@H](Cc1c[nH]c2ccccc12)NC(=O)[C@H](CCSC)NC(=O)CN)[C@@H](C)CC)C(=O)N[C@@H](CCCNC(=N)N)C(N)=O [(1)] (H-GMWSKILGHLIR-NH2) is ___
Marked response: 80

====

Test: Determination of hemolytic activity
Format: cell-based
Details: rat red blood cells (5% suspension), 1 h at 37°C, physiological solution, read-out: hemolytic activity LC50
Method: The peptides in the concentration (1-200 µM) were incubated with rat red blood cells (5%) for 1 h at 37°C in a physiological solution at a final volume of 0.2 ml The samples were then centrifuged for 5 min at 250 g, and the absorbance of the supernatant was determined at 540 nm. Supernatants of red blood cells suspended in physiological solution and in 0.2% TRITON X100 in physiological solution served as controls for zero hemolysis (blank) and 100% hemolysis, respectively.
Peptide text beside a SMILES is read from it.
Observed property: HC50 at 1 h

Exam item: Fill in: HC50 at 1 h of CC[C@H](C)[C@H](NC(=O)[C@H](CC(C)C)NC(=O)[C@H](CCCCN)NC(=O)CNC(=O)[C@H](CC(C)C)NC(=O)[C@@H](NC(=O)[C@H](CCCCN)NC(=O)[C@H](CCCCN)NC(=O)[C@H](Cc1c[nH]c2ccccc12)NC(=O)[C@H](CCCCN)NC(=O)CN)[C@@H](C)CC)C(=O)N[C@@H](CCCNC(=N)N)C(N)=O [(1-A/4)] (H-GKWKKILGKLIR-NH2) is ___
Marked response: > 200 µM

====

assay: Determination of hemolytic activity; format: cell-based; settings: rat red blood cells (5% suspension), 1 h at 37°C, physiological solution, read-out: hemolytic activity LC50
Peptide text beside a SMILES is read from it.
Observed property: HC50 at 1 h (µM)
Use µM as the unit, but write only the number.

# count of solved cases: 3
Compound	Units of measure	HC50 at 1 h
CC[C@H](C)[C@H](NC(=O)[C@H](CC(C)C)NC(=O)[C@H](Cc1c[nH]cn1)NC(=O)CNC(=O)[C@H](CC(C)C)NC(=O)[C@@H](NC(=O)[C@H](CCCCN)NC(=O)[C@H](CCCCN)NC(=O)[C@H](Cc1c[nH]c2ccccc12)NC(=O)[C@H](CCSC)NC(=O)CN)[C@@H](C)CC)C(=O)N[C@@H](CCCNC(=N)N)C(N)=O [(1-A/1)] (H-GMWKKILGHLIR-NH2)	µM	93
CC[C@H](C)[C@H](NC(=O)[C@H](Cc1c[nH]cn1)NC(=O)[C@H](CCCCN)NC(=O)[C@H](CC(C)C)NC(=O)[C@H](CC(C)C)NC(=O)[C@H](CO)NC(=O)[C@H](CCCCN)NC(=O)[C@H](Cc1c[nH]c2ccccc12)NC(=O)[C@H](CCCCN)NC(=O)CN)C(=O)N[C@@H](CC(C)C)C(=O)N[C@@H](CCCCN)C(N)=O [(2-A/1)] (H-GKWKSLLKHILK-NH2)	µM	95
CC[C@H](C)[C@H](NC(=O)[C@H](Cc1c[nH]cn1)NC(=O)[C@H](CCCCN)NC(=O)[C@H](CC(C)C)NC(=O)[C@H](CC(C)C)NC(=O)[C@H](CO)NC(=O)[C@H](CCSC)NC(=O)[C@H](Cc1c[nH]c2ccccc12)NC(=O)[C@H](CCCCN)NC(=O)CN)C(=O)N[C@@H](CC(C)C)C(=O)N[C@@H](CCCCN)C(N)=O [(2)] (H-GKWMSLLKHILK-NH2)	µM	80

--- query ---
Exam item: Fill in: HC50 at 1 h of CC[C@H](C)[C@H](NC(=O)[C@H](CC(C)C)NC(=O)[C@H](Cc1c[nH]cn1)NC(=O)CNC(=O)[C@H](CC(C)C)NC(=O)[C@@H](NC(=O)[C@H](CCCCN)NC(=O)[C@H](CO)NC(=O)[C@H](Cc1c[nH]c2ccccc12)NC(=O)[C@H](CCSC)NC(=O)CN)[C@@H](C)CC)C(=O)N[C@@H](CCCCN)C(N)=O [(1-A/3)] (H-GMWSKILGHLIK-NH2) is ___
Marked response: 111

These measurements were taken from patent EP2396020B1.
